Quick reference: EC50 of the listed items.
# study target: T1, recombinant His-tagged Der p1 (dust mite, UniProt P08176 99-320, limits assumed)
# T1 construct: Recombinant His-tagged protein made by the applicant; also called Der p1-His; Der pl; not shown: His tag
# T1 sequence (looked up): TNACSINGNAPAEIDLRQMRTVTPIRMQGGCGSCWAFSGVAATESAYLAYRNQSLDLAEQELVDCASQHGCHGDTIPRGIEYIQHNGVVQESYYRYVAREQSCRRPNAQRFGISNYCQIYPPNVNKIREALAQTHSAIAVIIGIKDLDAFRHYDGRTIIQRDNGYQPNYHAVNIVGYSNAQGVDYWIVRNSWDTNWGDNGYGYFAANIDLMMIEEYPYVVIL
# measurement protocol: ELISA, antigen coated on plate
parameter measured: EC50 (µg/mL)

INSERT INTO measurements (binder, numeric_value) VALUES
  ('SDAB22129-55-35-46-49-1-D04 (VHH) VHH: QLQLVESGGGLVQPGGSLRLSCVISGGTFHPYPIGWFREAPGKEREGVLCINSGGQSEISANSAHDPKYADSVKGRFTISRDNAANTVYLQMNNLEPGDTAVYYCAAPREIYVDPYCPTYAYEYWGQGTQVTVSA', 0.0621),
  ('SDAB22129-55-35-46-49-1-B12 (VHH, Expressed from a prokaryotic vector) VHH: QVQLVESGGGLVQAGGPLRLSCAASGRTFSSYAMGWFRQAPGKEREFVAAISWSGDSTYYADSVKGRFTLSRDNAKNTVYLQMNSLKPEDTAVYYCAVPSSGRGTYYYTLSAYEYWGQGTQVTVFS', 1.77),
  ('SDAB22129-55-35-46-49-1-A03 (VHH, Expressed from a prokaryotic vector) VHH: QVQLVESGGGLVQAGGSLRLSCAVSGRTVSRNVMGWFRQAPGKEREFVAGIGFSGGSTYYADSVKGRFTISRDNAKNTVYLEMNRLQPEDTAVYYCAAPSLPLLTSDLHDYDYWGQGTQVTVSS', 0.0291),
  ('SDAB22129-55-35-46-49-1-H08 (VHH, Expressed from a prokaryotic vector) VHH: EVQLVESGGGLVQAGGSLTLSCGRTTSIWGMGWFRQGRGKEREFVAAITPSGSITFYSDHVKGRFTVSRDNALNTVYLQMNSLKPEDTAVYYCARRGSSGSYYWAGSYEAWGQGTQVTVSS', 16.5);

Source: patent US20240352105A1
